Origin of values: the supplement of paper PMC9112550

system: Escherichia coli TOP10; assay: shrunken log2 fold change of peptide-encoding DNA abundance (4.5 h post-induction vs induction); higher = less antimicrobial activity (less host growth inhibition); details: time post-induction: 4.5 h; library: site-saturation at positions 5, 18, 19, 20;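 also: peptides expressed intracellularly from a pBAD plasmid library in pooled LB shake-flask culture, induced with 0.3% L-arabinose, DNA abundance read by NGS, three biological replicates, DESeq2 with apeglm shrinkage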
Recorded shrunken log2 fold change by entry
I only need the number, thanks.

[
  {
    "sequence.content": "RRIRGRPPRLPRPRPRPVMKPRP",
    "shrunken log2 fold change": 0.729
  },
  {
    "sequence.content": "RRIRFRPPRLPRPRPRPSSNPRP",
    "shrunken log2 fold change": -0.715
  },
  {
    "sequence.content": "RRIRNRPPRLPRPRPRPYMYPRP",
    "shrunken log2 fold change": 0.0369
  },
  {
    "sequence.content": "RRIRARPPRLPRPRPRPGPGPRP",
    "shrunken log2 fold change": 1.08
  },
  {
    "sequence.content": "RRIRCRPPRLPRPRPRPHWRPRP",
    "shrunken log2 fold change": 0.382
  },
  {
    "sequence.content": "RRIRKRPPRLPRPRPRPQSCPRP",
    "shrunken log2 fold change": -0.0373
  }
]

Query: # lookup: shrunken log2 fold change of RRIRIRPPRLPRPRPRPQMTPRP
Response: -0.733

Query: Query RRIRKRPPRLPRPRPRPKAEPRP next
Response: 0.669

Query: Query RRIRPRPPRLPRPRPRPKTIPRP next
Response: -0.0767

Query: Query RRIRKRPPRLPRPRPRPATWPRP next
Response: 0.573

Query: Query RRIRVRPPRLPRPRPRPGEKPRP next
Response: -0.186

Query: Query RRIRCRPPRLPRPRPRPHSNPRP next
Response: -0.625

Query: Query RRIRWRPPRLPRPRPRPIMKPRP next
Response: -0.0768
